# Test Target: human PD-L1 (Homo sapiens (Human))
# Sequence (Q9NZQ7 19-290): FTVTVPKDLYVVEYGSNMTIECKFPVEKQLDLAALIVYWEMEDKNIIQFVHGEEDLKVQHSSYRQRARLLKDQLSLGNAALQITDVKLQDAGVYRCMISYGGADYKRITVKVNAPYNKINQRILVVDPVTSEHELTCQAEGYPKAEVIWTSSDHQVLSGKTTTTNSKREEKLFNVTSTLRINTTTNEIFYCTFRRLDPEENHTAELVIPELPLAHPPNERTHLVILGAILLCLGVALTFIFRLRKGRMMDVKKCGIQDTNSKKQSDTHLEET
# Experimental Details: T cell activation luciferase reporter cell culture system (T Cell Activation Assay)
# Assay type: cell-based
# Measurement Setup: luciferase reporter assay; PD-L1 aAPC/CHO-K1 cells with PD-1 effector Jurkat T cells
pEC50: −log10 of the molar value.

{"Compound": "COc1cc(-c2nccc(-c3cccc(-c4ccc5c(CNC6CCOCC6)cn(C)c5n4)c3Cl)c2Cl)ccc1CN1CC2(CNC(=O)C2)C1 [Compound 605]", "Test Target": "human PD-L1 (Homo sapiens (Human))", "Comparison Symbol": "=", "pEC50": 6.20}
{"Compound": "COc1cc(-c2ncnc(-c3cccc(-c4ccc(CNCc5cnco5)c(OC)n4)c3Cl)c2Cl)ccc1CNCc1cnco1 [Example 643]", "Test Target": "human PD-L1 (Homo sapiens (Human))", "Comparison Symbol": "=", "pEC50": 5.82}
{"Compound": "COc1cc(-c2nccc(-c3cccc(-c4ccc(CN[C@H]5CC[C@H](O)CC5)c(OC)n4)c3C(F)(F)F)c2Cl)ccc1CN[C@H]1CC[C@H](O)CC1 [Example 588]", "Test Target": "human PD-L1 (Homo sapiens (Human))", "Comparison Symbol": "≤", "pEC50": 5.00}
{"Compound": "COc1nc(-c2cccc(-c3nccc(-c4ccc(CNC5CCOCC5)c(OC)n4)c3Cl)c2Cl)ccc1CNC1CCOCC1 [Compound 574]", "Test Target": "human PD-L1 (Homo sapiens (Human))", "Comparison Symbol": "=", "pEC50": 7.85}
{"Compound": "COc1cc(-c2nccc(-c3cccc(-c4ccc5c(CNC6CCN(C(C)=O)CC6)cn(C)c5n4)c3Cl)c2Cl)ccc1CNC[C@@H]1CCC(=O)N1 [Cmpd 57]", "Test Target": "human PD-L1 (Homo sapiens (Human))", "Comparison Symbol": "=", "pEC50": 7.70}
{"Compound": "COc1cc(-c2nccc(-c3cccc(-c4ccc(CNC5CCN(C(C)=O)CC5)c(OC)n4)c3Cl)c2Cl)ccc1CNC1CCNCC1 [Example 417]", "Test Target": "human PD-L1 (Homo sapiens (Human))", "Comparison Symbol": "=", "pEC50": 7.23}
{"Compound": "COc1nc(-c2cccc(-c3ccnc(-c4ccc5c(c4)N(C)CCNC5)c3Cl)c2Cl)ccc1CNC[C@@H]1CCC(=O)N1 [Cmpd 3]", "Test Target": "human PD-L1 (Homo sapiens (Human))", "Comparison Symbol": "=", "pEC50": 7.37}
{"Compound": "COc1cc(-c2ncnc(-c3cccc(-c4ccc(CNC5CCOCC5)c(OC)n4)c3Cl)c2OC)ccc1CNC1CCOCC1 [Example 734]", "Test Target": "human PD-L1 (Homo sapiens (Human))", "Comparison Symbol": "≤", "pEC50": 5.00}
{"Compound": "COc1nc(-c2cccc(-c3ccnc(-c4cc(Cl)c5c(c4)CCN(C[C@H](C)O)C5)c3Cl)c2Cl)ccc1CNC[C@@H]1CCC(=O)N1 [Cmpd 69]", "Test Target": "human PD-L1 (Homo sapiens (Human))", "Comparison Symbol": "=", "pEC50": 7.25}
{"Compound": "CNCc1ccc(-c2cccc(-c3ccnc(-c4cc(CNC[C@@H](O)CC(=O)O)cc(OC)c4)c3Cl)c2Cl)nc1OC [Compound 169]", "Test Target": "human PD-L1 (Homo sapiens (Human))", "Comparison Symbol": "=", "pEC50": 6.20}
{"Compound": "COc1nc(-c2cccc(-c3ccnc(-c4cnc5c(CN6CCC(NC(C)=O)CC6)cn(C)c5c4)c3Cl)c2Cl)ccc1CNC[C@@H]1CCC(=O)N1 [Example 377]", "Test Target": "human PD-L1 (Homo sapiens (Human))", "Comparison Symbol": "=", "pEC50": 6.39}
{"Compound": "CNCc1ccc(-c2cccc(-c3ccnc(-c4ccc(CNC(C)C)c(OC)c4)c3Cl)c2Cl)nc1OC [Compound 211]", "Test Target": "human PD-L1 (Homo sapiens (Human))", "Comparison Symbol": "=", "pEC50": 7.25}
{"Compound": "COc1cc(-c2nccc(-c3cccc(-c4ccc(CNC[C@@H]5CCC(=O)N5)c(OC)n4)c3Cl)c2Cl)cc2c1CN(C[C@@H](C)O)CC2 [Cmpd 27]", "Test Target": "human PD-L1 (Homo sapiens (Human))", "Comparison Symbol": "=", "pEC50": 7.60}
{"Compound": "COc1cc(-c2nccc(-c3cccc(-c4ccc(CN5CC6(C5)CN(C(C)=O)C6)c(OC)n4)c3Cl)c2Cl)ccc1CNC1CCN(C(C)=O)CC1 [Example 483]", "Test Target": "human PD-L1 (Homo sapiens (Human))", "Comparison Symbol": "=", "pEC50": 7.40}
{"Compound": "COc1cc(-c2nccc(-c3nccc(-c4ccc(CNC5CCN(C(C)=O)CC5)c(OC)n4)c3Cl)c2Cl)ccc1CNC1CCN(C(C)=O)CC1 [Example 668]", "Test Target": "human PD-L1 (Homo sapiens (Human))", "Comparison Symbol": "=", "pEC50": 6.61}
{"Compound": "COc1cc(-c2nccc(-c3cccc(NC(=O)c4ccc(CNC5CC6(C5)CN(C(C)=O)C6)cn4)c3Cl)c2Cl)ccc1CNC1CC2(C1)CN(C(C)=O)C2 (stereo not drawn) [Example 706]", "Test Target": "human PD-L1 (Homo sapiens (Human))", "Comparison Symbol": "=", "pEC50": 7.14}
{"Compound": "COc1cc(-c2nccc(-c3cccc(-c4ccc5c(CNC[C@@H]6CCCO6)cn(C)c5n4)c3Cl)c2Cl)ccc1CNC[C@@H]1CCC(=O)N1 [Cmpd 93]", "Test Target": "human PD-L1 (Homo sapiens (Human))", "Comparison Symbol": "=", "pEC50": 7.35}
{"Compound": "COc1cc(-c2nccc(-c3cccc(-c4ccc(CNC[C@@H]5CCC(=O)N5)c(OC)n4)c3Cl)c2Cl)cc(F)c1CNC[C@H](C)O [Cmpd 80]", "Test Target": "human PD-L1 (Homo sapiens (Human))", "Comparison Symbol": "=", "pEC50": 7.34}
{"Compound": "COc1cc(-c2nccc(-c3cccc(-c4ccc(CN5CC6(C5)CN(C(C)=O)C6)c(OC)n4)c3Cl)c2Cl)cnc1CN1CC2(C1)CN(C(C)=O)C2 [Compound 428]", "Test Target": "human PD-L1 (Homo sapiens (Human))", "Comparison Symbol": "=", "pEC50": 7.29}
{"Compound": "COc1nc(-c2cccc(-c3ccnc(-c4ccc(CN5CC6(C5)CN(C(C)=O)C6)c(OC(F)F)c4)c3Cl)c2Cl)ccc1CNC1CCN(C(C)=O)CC1 [Example 664]", "Test Target": "human PD-L1 (Homo sapiens (Human))", "Comparison Symbol": "=", "pEC50": 7.49}
{"Compound": "COc1nc(-c2cccc(-c3ccnc(-c4ccc(CNC5CCN(C)C(=O)C5)c(OC(F)F)c4)c3Cl)c2Cl)ccc1CNC1CCN(C)C(=O)C1 (racemic) [Example 619]", "Test Target": "human PD-L1 (Homo sapiens (Human))", "Comparison Symbol": "=", "pEC50": 7.17}
{"Compound": "COc1cc(-c2nccc(-c3cccc(-c4ccc(CN5CCC6(CC5)CC(=O)N6)c(OC)n4)c3Cl)c2Cl)ccc1CN1CCC2(CC1)CC(=O)N2 [Example 353]", "Test Target": "human PD-L1 (Homo sapiens (Human))", "Comparison Symbol": "≤", "pEC50": 5.00}
{"Compound": "COc1cc(-c2nccc(-c3cccc(-c4cc5c(cn4)C(=O)N(CCNC[C@@H]4CCC(=O)N4)C5)c3Cl)c2Cl)ccc1CNC[C@@H]1CCC(=O)N1 [Example 290]", "Test Target": "human PD-L1 (Homo sapiens (Human))", "Comparison Symbol": "=", "pEC50": 6.26}
{"Compound": "COc1cc(-c2nccc(-c3cccc(-c4ccc5c(CNCC(C)(C)O)cn(C)c5n4)c3Cl)c2Cl)ccc1CNC[C@@H]1CCC(=O)N1 [Compound 99]", "Test Target": "human PD-L1 (Homo sapiens (Human))", "Comparison Symbol": "=", "pEC50": 7.32}

Data provenance is patent US20240246964A1.
